# assayed_target: AP C3-convertase (C3bBb) (UniProt P01024)
# Sequence (P01024 23-667 limits assumed, chain 1 of 3): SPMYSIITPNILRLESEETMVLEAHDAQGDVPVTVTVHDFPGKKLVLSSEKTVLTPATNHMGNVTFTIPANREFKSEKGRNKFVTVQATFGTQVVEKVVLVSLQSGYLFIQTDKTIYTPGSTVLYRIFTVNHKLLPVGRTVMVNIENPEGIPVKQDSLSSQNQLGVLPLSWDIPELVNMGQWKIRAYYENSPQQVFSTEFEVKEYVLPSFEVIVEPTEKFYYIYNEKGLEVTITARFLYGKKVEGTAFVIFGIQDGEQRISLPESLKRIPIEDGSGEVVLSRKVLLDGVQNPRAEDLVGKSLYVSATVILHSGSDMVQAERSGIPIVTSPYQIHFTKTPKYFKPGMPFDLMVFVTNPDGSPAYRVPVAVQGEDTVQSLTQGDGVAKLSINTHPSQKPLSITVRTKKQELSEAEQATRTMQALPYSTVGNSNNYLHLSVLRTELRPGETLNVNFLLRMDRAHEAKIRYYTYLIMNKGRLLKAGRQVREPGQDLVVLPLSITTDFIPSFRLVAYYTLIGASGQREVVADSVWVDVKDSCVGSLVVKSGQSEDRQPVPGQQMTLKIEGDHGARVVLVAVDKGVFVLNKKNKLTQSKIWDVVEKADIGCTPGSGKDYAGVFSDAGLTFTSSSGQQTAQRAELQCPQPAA
# Sequence (P01024 749-1663 limits assumed, chain 2 of 3): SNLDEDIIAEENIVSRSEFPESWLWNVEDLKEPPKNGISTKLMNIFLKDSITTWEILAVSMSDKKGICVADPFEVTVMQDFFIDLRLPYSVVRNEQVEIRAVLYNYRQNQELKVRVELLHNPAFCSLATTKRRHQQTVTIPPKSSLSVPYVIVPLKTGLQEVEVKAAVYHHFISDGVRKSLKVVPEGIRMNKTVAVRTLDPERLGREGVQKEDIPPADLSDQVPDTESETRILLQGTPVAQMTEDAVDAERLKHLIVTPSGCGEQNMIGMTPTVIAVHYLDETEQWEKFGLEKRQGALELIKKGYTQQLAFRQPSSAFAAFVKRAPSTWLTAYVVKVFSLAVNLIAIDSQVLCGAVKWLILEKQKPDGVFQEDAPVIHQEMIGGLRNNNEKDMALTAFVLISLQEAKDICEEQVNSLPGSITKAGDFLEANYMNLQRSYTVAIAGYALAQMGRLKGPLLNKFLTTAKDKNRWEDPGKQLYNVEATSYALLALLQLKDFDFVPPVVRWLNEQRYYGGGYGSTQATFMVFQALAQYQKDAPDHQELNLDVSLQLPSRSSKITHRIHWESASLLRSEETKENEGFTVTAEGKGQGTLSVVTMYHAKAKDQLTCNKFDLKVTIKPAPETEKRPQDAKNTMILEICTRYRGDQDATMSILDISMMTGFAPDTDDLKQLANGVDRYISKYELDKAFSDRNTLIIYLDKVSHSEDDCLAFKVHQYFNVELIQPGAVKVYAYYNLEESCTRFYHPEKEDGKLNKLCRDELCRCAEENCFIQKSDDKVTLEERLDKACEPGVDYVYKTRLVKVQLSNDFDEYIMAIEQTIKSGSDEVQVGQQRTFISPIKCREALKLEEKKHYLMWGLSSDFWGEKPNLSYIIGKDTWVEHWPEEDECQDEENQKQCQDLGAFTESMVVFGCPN
# Sequence (P00751 260-764 limits assumed, chain 3 of 3, further chain): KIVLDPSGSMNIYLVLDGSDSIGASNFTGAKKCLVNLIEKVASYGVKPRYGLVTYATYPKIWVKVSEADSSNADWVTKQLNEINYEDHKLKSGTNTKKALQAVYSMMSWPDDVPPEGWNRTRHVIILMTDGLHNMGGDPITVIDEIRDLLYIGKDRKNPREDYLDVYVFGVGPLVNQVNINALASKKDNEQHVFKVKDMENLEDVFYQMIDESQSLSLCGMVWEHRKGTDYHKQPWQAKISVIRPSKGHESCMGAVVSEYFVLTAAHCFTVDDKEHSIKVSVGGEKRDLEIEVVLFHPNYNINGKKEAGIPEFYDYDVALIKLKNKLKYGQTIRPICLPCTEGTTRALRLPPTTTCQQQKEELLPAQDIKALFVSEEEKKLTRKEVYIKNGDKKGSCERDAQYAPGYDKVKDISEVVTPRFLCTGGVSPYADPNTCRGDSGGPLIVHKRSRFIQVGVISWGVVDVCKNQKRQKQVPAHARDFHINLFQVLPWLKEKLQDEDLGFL
# assay_remarks: cell-based or functional assay
quantity: AP-DAA IC50 (nM)
Number in nM, nothing else.

// query For the binder D2D3M3M4 (S199K) (protein) CEVPTRLNSASLKQPYITQNYFPVGTVVEYECRPGYRREPSLSPKLTCLQNLKWSTAVEFCKKKSCPNPGEIRNGQIDVPGGILFGATISFSCNTGYKLFGKTSSFCLISGSSVQWSDPLPECREIYCTPPPKIKNGKHTFSEVEVFEYLDAVTYSCDPAPGPDPFSLIGESTIYCGDNSVWSRAAPECKVVKCRFPVVENGKQISGFGKKFYYKATVMFECDKGFYLDGSDTIVCDSNSTWDPPVPKCLKVL , give its reported AP-DAA IC50.
// result 6.5
